System: 898857-211-R-J1-PDC complex spheroids, growth % test/control
Assay: Anticancer human tumor 898857-211-R-J1-PDC patient-derived melanoma cell line growth inhibition [RAS]
Settings: second compound 1 µM; first compound 10 µM; stronger effect = lower value
Text: RAS pathway inhibitors in Combinations in Complex Spheroids A high-throughput screen of multi-cell type tumor spheroids was designed to identify active combinations of RAS pathway inhibitors and targeted small molecules. Complex spheroids include a stromal component modeled by human endothelial cells (HUVEC) and fibroblasts modeled by human mesenchymal stem cells (MSCs). […] Compounds. […] If the clinical Cmax for an agent had not been determined, the highest concentration tested was 10 microM. […]
I'd appreciate it if you marked entries true when viability, T/C is lower than 70% and false when it is not.

Use these answered entries as a reference point.
* CC1(O)CCCC1n1c(=O)c(C(F)F)cc2cnc(NC3CCN(S(C)(=O)=O)CC3)nc21 (stereo not given) + C#Cc1c(F)ccc2cc(O)cc(-c3ncc4c(N5CC6CCC(C5)N6)nc(OCC56CCCN5CC(F)C6)nc4c3F)c12 | true
* Cc1nc(N2CCC3(CC2)COC(C)C3N)c(CO)nc1Sc1ccnc(N)c1Cl (stereo not given) + C=CC(=O)N1CCN(c2nc(OCC3CCCN3C)nc3c(F)c(-c4nc(N)cc(C)c4C(F)(F)F)c(Cl)cc23)C(C)C1 | false

Proceed to the following item.
Confirm or reject: viability, T/C of CC(C)NCC(C(=O)N1CCN(c2ncnc3c2C(C)CC3O)CC1)c1ccc(Cl)cc1 (stereo not given) + C#Cc1c(F)ccc2cc(O)cc(-c3ncc4c(N5CC6CCC(C5)N6)nc(OCC56CCCN5CC(F)C6)nc4c3F)c12 lies strictly below 70%
true

====

test system: 898857-211-R-J1-PDC complex spheroids, growth % test/control; test: Anticancer human tumor 898857-211-R-J1-PDC cell line growth inhibition [RAS]; conditions: curve of first compound; second compound 0.00949 µM;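 note: spheroids exposed to compound for seven days before readout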
Consider the following molecules; for each one, report its IC50.

The following molecules have reported results that may help.
* CC(=O)OC12COC1CC(O)C1(C)C(=O)C(O)C3=C(C)C(OC(=O)C(O)C(NC(=O)OC(C)(C)C)c4ccccc4)CC(O)(C(OC(=O)c4ccccc4)C21)C3(C)C (stereo not drawn) + CCn1c(-c2cccnc2C(C)OC)c2c3cc(ccc31)N1CCOC(CC(NC(=O)C(C(C)C)N(C)C(=O)C3(F)CCN(C(=O)C#CC(C)(C)N(C)C)CC3)C(=O)N3CCCC(N3)C(=O)OCC(C)(C)C2)C1 | < 0.0316 µM
* CC(Nc1ccc2c(c1)OCCn1cc(N3C(=O)OCC3C(F)F)nc1-2)C(N)=O (stereo not drawn) + CCn1c(-c2cccnc2C(C)OC)c2c3cc(ccc31)N1CCOC(CC(NC(=O)C(C(C)C)N(C)C(=O)C3(F)CCN(C(=O)C#CC(C)(C)N(C)C)CC3)C(=O)N3CCCC(N3)C(=O)OCC(C)(C)C2)C1 | > 10 µM
* CC(C)NCC(C(=O)N1CCN(c2ncnc3c2C(C)CC3O)CC1)c1ccc(Cl)cc1 (stereo not drawn) + CCn1c(-c2cccnc2C(C)OC)c2c3cc(ccc31)N1CCOC(CC(NC(=O)C(C(C)C)N(C)C(=O)C3(F)CCN(C(=O)C#CC(C)(C)N(C)C)CC3)C(=O)N3CCCC(N3)C(=O)OCC(C)(C)C2)C1 | 9.66 µM

Need IC50 for each of these molecules.
1. CCc1c2c(nc3ccc(O)cc13)-c1cc3c(c(=O)n1C2)COC(=O)[C@]3(O)CC + CCn1c(-c2cccnc2C(C)OC)c2c3cc(ccc31)N1CCOC(CC(NC(=O)C(C(C)C)N(C)C(=O)C3(F)CCN(C(=O)C#CC(C)(C)N(C)C)CC3)C(=O)N3CCCC(N3)C(=O)OCC(C)(C)C2)C1
2. CCC(CC)c1cc(NC2CCC(N)C2)n2nccc2n1 (stereo not drawn) + CCn1c(-c2cc(N3CCN(C)CC3)cnc2C(C)OC)c2c3cc(ccc31)-c1csc(n1)CC(NC(=O)C1CC1C)C(=O)N1CCCC(N1)C(=O)OCC(C)(C)C2

0.00421 µM
0.609 µM

Need IC50 for each of these molecules.
1. CCC(CC)c1cc(NC2CCC(N)C2)n2nccc2n1 (stereo not drawn) + CCn1c(-c2cccnc2C(C)OC)c2c3cc(ccc31)N1CCOC(CC(NC(=O)C(C(C)C)N(C)C(=O)C3(F)CCN(C(=O)C#CC(C)(C)N(C)C)CC3)C(=O)N3CCCC(N3)C(=O)OCC(C)(C)C2)C1
2. CC(C)NCC(C(=O)N1CCN(c2ncnc3c2C(C)CC3O)CC1)c1ccc(Cl)cc1 (stereo not drawn) + CCn1c(-c2cc(N3CCN(C)CC3)cnc2C(C)OC)c2c3cc(ccc31)-c1csc(n1)CC(NC(=O)C1CC1C)C(=O)N1CCCC(N1)C(=O)OCC(C)(C)C2
3. CC(Nc1ccc2c(c1)OCCn1cc(N3C(=O)OCC3C(F)F)nc1-2)C(N)=O (stereo not drawn) + CCn1c(-c2cc(N3CCN(C)CC3)cnc2C(C)OC)c2c3cc(ccc31)-c1csc(n1)CC(NC(=O)C1CC1C)C(=O)N1CCCC(N1)C(=O)OCC(C)(C)C2

["0.968 µM", "7.68 µM", "6.62 µM"]

====

tested on: 898857-211-R-J1-PDC complex spheroids, growth % test/control; experiment: Anticancer human tumor 898857-211-R-J1-PDC cell line growth inhibition [RAS]; conditions: second compound 0.316 µM; first compound 1 µM; active = viability on the fitted dose curve at most 10% of control; inactive = the rest;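 note: spheroids exposed to compound for seven days before readout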
// classify into 1 = active, 0 = inactive

• O=C(c1ccc(F)c(F)c1Nc1ccc(I)cc1F)N1CC(O)([C@@H]2CCCCN2)C1 + C=CC(=O)N1CCN(c2nc(OCC3CCCN3C)nc3c(F)c(-c4nc(N)cc(C)c4C(F)(F)F)c(Cl)cc23)C(C)C1 = 0
• CC(=O)OC12COC1CC(O)C1(C)C(=O)C(O)C3=C(C)C(OC(=O)C(O)C(NC(=O)OC(C)(C)C)c4ccccc4)CC(O)(C(OC(=O)c4ccccc4)C21)C3(C)C (stereo not given) + C=CC(=O)N1CCN(c2nc(OCC3CCCN3C)nc3c(F)c(-c4nc(N)cc(C)c4C(F)(F)F)c(Cl)cc23)C(C)C1 = 0

Test call, this molecule: CCC(CC)c1cc(NC2CCC(N)C2)n2nccc2n1 (stereo not given) + C=CC(=O)N1CCN(c2nc(OCC3CCCN3C)nc3c(F)c(-c4nc(N)cc(C)c4C(F)(F)F)c(Cl)cc23)C(C)C1
0

Test call, this molecule: Cc1nc(N2CCC3(CC2)COC(C)C3N)c(CO)nc1Sc1ccnc(N)c1Cl (stereo not given) + C=CC(=O)N1CCN(c2nc(OCC3CCCN3C)nc3c(F)c(-c4nc(N)cc(C)c4C(F)(F)F)c(Cl)cc23)C(C)C1
0

====

test system: 898857-211-R-J1-PDC complex spheroids, growth % test/control; assay: Anticancer human tumor 898857-211-R-J1-PDC cell line growth inhibition [RAS]; settings: curve of first compound; second compound 0.0316 µM;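 note: spheroids exposed to compound for seven days before readout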
Consider the following molecules; for each one, report its IC50.
Numbers only, in nM.

The following molecules have reported results that may help.
• CC1(O)CCCC1n1c(=O)c(C(F)F)cc2cnc(NC3CCN(S(C)(=O)=O)CC3)nc21 (configuration not stated) + C#Cc1c(F)ccc2cc(O)cc(-c3ncc4c(N5CC6CCC(C5)N6)nc(OCC56CCCN5CC(F)C6)nc4c3F)c12 = 584
• O=C(c1ccc(F)c(F)c1Nc1ccc(I)cc1F)N1CC(O)([C@@H]2CCCCN2)C1 + C=CC(=O)N1CCN(c2nc(OCC3CCCN3C)nc3c(F)c(-c4nc(N)cc(C)c4C(F)(F)F)c(Cl)cc23)C(C)C1 = 4.61
• CC(C)n1nc(-c2ccc3oc(N)nc3c2)c2c(N)ncnc21 + C#Cc1c(F)ccc2cc(O)cc(-c3ncc4c(N5CC6CCC(C5)N6)nc(OCC56CCCN5CC(F)C6)nc4c3F)c12 = 32.6
• C[C@@H](NC(=O)c1ncnc(N)c1Cl)c1ncc(C(=O)Nc2cc(C(F)(F)F)c(Cl)cn2)s1 + C=CC(=O)N1CCN(c2nc(OCC3CCCN3C)nc3c(F)c(-c4nc(N)cc(C)c4C(F)(F)F)c(Cl)cc23)C(C)C1 = 5770
• O=C(c1ccc(F)c(F)c1Nc1ccc(I)cc1F)N1CC(O)([C@@H]2CCCCN2)C1 + C#Cc1c(F)ccc2cc(O)cc(-c3ncc4c(N5CC6CCC(C5)N6)nc(OCC56CCCN5CC(F)C6)nc4c3F)c12 = 3.56

Need IC50 for each of these molecules.
1. Nc1ccn(C2OC(CO)C(O)C2(F)F)c(=O)n1 (configuration not stated) + C=CC(=O)N1CCN(c2nc(OCC3CCCN3C)nc3c(F)c(-c4nc(N)cc(C)c4C(F)(F)F)c(Cl)cc23)C(C)C1
2. CCc1c2c(nc3ccc(O)cc13)-c1cc3c(c(=O)n1C2)COC(=O)[C@]3(O)CC + C#Cc1c(F)ccc2cc(O)cc(-c3ncc4c(N5CC6CCC(C5)N6)nc(OCC56CCCN5CC(F)C6)nc4c3F)c12
3. CC1(C)CCC(Nc2ncc(C(F)(F)F)c(-c3c[nH]c4c(P(C)(C)=O)c(C#N)ccc34)n2)CN1 (configuration not stated) + C#Cc1c(F)ccc2cc(O)cc(-c3ncc4c(N5CC6CCC(C5)N6)nc(OCC56CCCN5CC(F)C6)nc4c3F)c12
4. CC1(C)CCC(Nc2ncc(C(F)(F)F)c(-c3c[nH]c4c(P(C)(C)=O)c(C#N)ccc34)n2)CN1 (configuration not stated) + C=CC(=O)N1CCN(c2nc(OCC3CCCN3C)nc3c(F)c(-c4nc(N)cc(C)c4C(F)(F)F)c(Cl)cc23)C(C)C1

1. 7.1
2. 4.7
3. 4.05
4. 4.69

Ref: PubChem BioAssay AID2060882
